Test system: IGROV1 ovarian
Assay Summary: NCI tumour cell line growth inhibition, 48 h
Recorded TGI for the following compounds

Compound	TGI
C=CCN(N=O)C(=O)N(CCC)CCCCC(NC(C)=O)C(=O)NCc1ccccc1 (stereo not drawn)	> 100 µM
N=C(N)C1CN(CC=O)C(=O)NC1=O (stereo not drawn)	> 100 µM
O=C(O)CNCc1c2ccccc2[n+]([O-])c2ccccc12	> 100 µM
CC(C)(CCCCC(C)(C)NCC1COc2ccccc2O1)NCC1COc2ccccc2O1 (stereo not drawn)	> 10 µM
CC1(C)OC(=O)CC12CCN(Cc1ccccc1)CC2	> 100 µM
O=c1[nH]c2ccsc2c(=O)n1COCc1ccccc1	> 100 µM
CC1(C)N=C(N)N=C(N)N1c1cccc(OCc2cccc([N+](=O)[O-])c2)c1	> 100 µM
O=C1CCSc2c(cnc3ccccc23)N1	> 100 µM
